Biological target: Lysozyme C (Gallus gallus)
Assay: Renaturation of 0.1 mg/mL reduced hen egg white lysozyme assessed as maximum enzyme activity at 0.5 mM at pH 7 by Micrococcus lysodeikticus lysis-based enzyme assay in presence of 0.2 mM GSSG
Parameters: scale not given: the % may be the effect or the level left
OBSERVABLE: Activity (%)
One number for each entry, in %.

Example entries and their recorded answers appear below.
1) O=C(OCCOCCOCCS)c1ccccc1S; 55
2) O=C(OCCOCCOCCOCCS)c1ccccc1S; 85
3) O=C(OCCOCCOCCOCCS)c1ccc(S)cc1; 39

// query Activity value for entry "O=C(OCCOCCOCCS)c1ccc(S)cc1"
57

----------
Target: Lysozyme C (Gallus gallus) (UniProt P00698)
Sequence (P00698 whole entry): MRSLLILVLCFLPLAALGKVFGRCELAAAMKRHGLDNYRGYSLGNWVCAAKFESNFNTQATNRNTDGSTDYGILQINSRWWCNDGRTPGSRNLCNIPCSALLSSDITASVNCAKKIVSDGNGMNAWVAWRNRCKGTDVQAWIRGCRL
Test: Renaturation of 0.1 mg/mL reduced hen egg white lysozyme assessed as apparent rate of renaturation at 0.5 mM at pH 8 by Micrococcus lysodeikticus lysis-based enzyme assay in presence of 0.2 mM GSSG
Exercise: state measured Activity for each of the compounds provided.
Answers are plain numbers, in min⁻¹.

Example entries and their recorded answers appear below.
1. O=C(OCCOCCOCCS)c1ccc(S)cc1; 0.076
2. O=C(OCCOCCOCCS)c1ccccc1S; 0.041
3. O=C(OCCOCCS)c1ccc(S)cc1; 0.072
4. O=C(OCCOCCOCCOCCS)c1ccc(S)cc1; 0.087

Next item in the queue.
// query Activity value for entry "O=C(OCCOCCOCCOCCS)c1ccccc1S"
0.061

----------
Molecular target: UniProt:P00698
Experiment: Renaturation of 0.1 mg/mL reduced hen egg white lysozyme assessed as maximum enzyme activity at 3 mM at pH 8 by Micrococcus lysodeikticus lysis-based enzyme assay in presence of 0.2 mM GSSG
Design: scale not given: the % may be the effect or the level left
OBSERVABLE: Activity
Field: value (include unit after the number)

Example entries and their recorded answers appear below.
1. O=C(OCCOCCOCCOCCS)c1ccc(S)cc1; 43%
2. O=C(OCCOCCOCCS)c1ccc(S)cc1; 16%
3. O=C(OCCOCCOCCOCCS)c1ccccc1S; 27%

Next item in the queue.
// query Activity value for entry "O=C(OCCOCCS)c1ccc(S)cc1"
9%

----------
Experiment: Solubility of the compound at pH 8
Type: physicochemical
Conditions: buffer
OBSERVABLE: solubility (µM)
Answers are plain numbers, in µM.

// query solubility value for entry "O=C(OCCOCCOCCS)c1ccccc1"
2000

----------
Biological target: Lysozyme C (Gallus gallus) (UniProt P00698)
Test: Renaturation of 0.1 mg/mL reduced hen egg white lysozyme assessed as apparent rate of renaturation at 0.5 mM at pH 7 by Micrococcus lysodeikticus lysis-based enzyme assay in presence of 0.2 mM GSSG
Exercise: state measured Activity for each of the molecules provided.

1) O=C(OCCOCCOCCOCCS)c1ccc(S)cc1; 0.038 min⁻¹
2) O=C(OCCOCCOCCS)c1ccccc1S; 0.013 min⁻¹
3) O=C(OCCOCCOCCS)c1ccc(S)cc1; 0.025 min⁻¹

Next item in the queue.
// query Activity value for entry "O=C(OCCOCCOCCOCCS)c1ccccc1S"
0.008 min⁻¹

----------
Experiment: Dissociation constant, pKa of the compound
Assay type: physicochemical
Exercise: state measured pKa for each of the compounds provided.
Numbers only.

1. OCCS [2-MERCAPTOETHANOL]; 9.6

Next item in the queue.
// query pKa value for entry N[C@@H](CS)C(=O)O [CYSTEINE]
8.7
